assayTarget: BIN1-GFP (Arabidopsis thaliana, UniProt O22476)
Sequence (O22476 with tags, fused parts or gaps): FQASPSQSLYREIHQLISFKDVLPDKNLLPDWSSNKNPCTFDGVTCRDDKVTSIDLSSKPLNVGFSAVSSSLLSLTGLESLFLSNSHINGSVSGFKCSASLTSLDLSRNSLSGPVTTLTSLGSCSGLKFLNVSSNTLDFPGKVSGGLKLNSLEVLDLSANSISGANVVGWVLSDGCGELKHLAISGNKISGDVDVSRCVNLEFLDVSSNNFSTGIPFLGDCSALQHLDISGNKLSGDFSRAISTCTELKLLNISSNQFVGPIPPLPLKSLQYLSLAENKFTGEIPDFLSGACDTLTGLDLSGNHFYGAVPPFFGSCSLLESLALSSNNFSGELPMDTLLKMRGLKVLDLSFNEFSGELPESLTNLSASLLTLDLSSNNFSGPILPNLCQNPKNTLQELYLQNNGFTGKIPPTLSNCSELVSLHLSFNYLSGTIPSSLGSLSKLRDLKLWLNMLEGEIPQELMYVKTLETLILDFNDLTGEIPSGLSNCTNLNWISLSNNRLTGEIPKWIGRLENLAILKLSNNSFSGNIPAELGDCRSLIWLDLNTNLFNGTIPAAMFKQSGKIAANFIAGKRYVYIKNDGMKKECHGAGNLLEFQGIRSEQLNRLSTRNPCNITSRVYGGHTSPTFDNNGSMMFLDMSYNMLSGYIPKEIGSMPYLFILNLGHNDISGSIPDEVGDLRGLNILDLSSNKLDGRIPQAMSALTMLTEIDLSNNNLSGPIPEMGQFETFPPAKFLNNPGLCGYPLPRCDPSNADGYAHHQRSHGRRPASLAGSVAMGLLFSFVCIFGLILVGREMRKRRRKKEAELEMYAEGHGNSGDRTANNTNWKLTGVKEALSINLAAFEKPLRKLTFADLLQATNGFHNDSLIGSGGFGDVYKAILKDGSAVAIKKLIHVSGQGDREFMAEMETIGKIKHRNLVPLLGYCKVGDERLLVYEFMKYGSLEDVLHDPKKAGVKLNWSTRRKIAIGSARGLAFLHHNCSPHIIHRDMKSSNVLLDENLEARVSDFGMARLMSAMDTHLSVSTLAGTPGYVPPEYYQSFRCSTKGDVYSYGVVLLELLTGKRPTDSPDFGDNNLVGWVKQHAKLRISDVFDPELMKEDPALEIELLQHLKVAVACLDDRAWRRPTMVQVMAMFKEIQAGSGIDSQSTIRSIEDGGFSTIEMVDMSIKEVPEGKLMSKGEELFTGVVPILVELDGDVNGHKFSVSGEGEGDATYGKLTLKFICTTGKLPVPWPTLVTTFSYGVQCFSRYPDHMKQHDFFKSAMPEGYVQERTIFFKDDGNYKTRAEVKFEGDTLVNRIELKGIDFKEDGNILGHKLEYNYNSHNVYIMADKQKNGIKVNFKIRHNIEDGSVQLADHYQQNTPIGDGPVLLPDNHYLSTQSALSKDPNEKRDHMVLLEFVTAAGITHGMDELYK
Assay type: binding
Set-up: expressed in transfected cells; host or cells: transgenic Arabidopsis plants (microsomal fractions, or anti-GFP immunoprecipitate from extracts)
conditionParameters: read-out: 50% inhibition concentration, IC50, of [3H]-BL binding; membrane fraction of BIN1-GFP plants
resultType: IC50 (nM)

>>> resultnumber("CC(C)[C@H](C)[C@@H](O)[C@H](O)[C@@H](C)[C@H]1CC[C@H]2[C@@H]3CC(=O)[C@H]4C[C@H](O)[C@H](O)C[C@]4(C)[C@H]3CC[C@]12C")
340
